assay: Saturation solubility of diamorphine base in solvents; settings: Oleic acid/Vitamin E 1:1, oil or lipid
Measure name: solubility

Inquiry: solubility lookup needed for CC(=O)Oc1ccc2c3c1O[C@H]1[C@@H](OC(C)=O)C=C[C@H]4[C@@H](C2)N(C)CC[C@@]341 , thanks.
Reply text: 17.2 mg/mL

---

assay: Saturation solubility of diamorphine base in solvents; conditions: Oleic acid, oil or lipid
Measure name: solubility (mg/mL)
The reply should be a number in mg/mL, with the unit left off.

Inquiry: Return reported solubility; argument: CC(=O)Oc1ccc2c3c1O[C@H]1[C@@H](OC(C)=O)C=C[C@H]4[C@@H](C2)N(C)CC[C@@]341 [diamorphine base, diamorphine]
Reply text: 22.6

Source: patent US20050053647A1
